The origin of these recorded values is PubChem BioAssay (NCI).

test: NCI Yeast Anticancer Drug Screen. Data for the bub3 strain (AID 167); conditions: S. cerevisiae bub3 mutant strain, at 50.0 µM, stronger effect = higher value
About 79,000 compounds went through this panel and 15% of them were active in at least one assay; those are over-represented in the sample as a whole.
EXPERIMENTAL READOUT: growth inhibition (%)
Give just the numeric value; % need not be written.

Solved entries (count: 3):
c1ccc2c(c1)c1c(n2CCOCCN2CCCCC2)CCCC1 :: 28.4
Cc1ccc(-c2cn3c(nc4ccccc43)c(C)n2)cc1 :: 13
O=C(Nc1cccc2ccccc12)c1ccccc1F :: 21.1

Supply reported growth inhibition belonging to this compound: "Cn1c2ccccc2c(=S)c2cc(NC(=O)CCCCC(=O)Nc3ccc4c(c3)c(=S)c3ccccc3n4C)ccc21"
-4.1

Supply reported growth inhibition belonging to this compound: "Cn1c2ccccc2c(=O)c2cc(NC(=O)CCCCCCCC(=O)Nc3ccc4c(c3)c(=O)c3ccccc3n4C)ccc21"
-27.2

Supply reported growth inhibition belonging to this compound: CC(O)C(NC(=O)c1cnc(OCc2ccccc2)nc1N)C(=O)O (configuration not stated)
-9.8
